Each record here notes measured growth inhibition.
EXPERIMENT_NOTES: NCI Yeast Anticancer Drug Screen. Data for the cln2 rad14 strain (AID 165);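 also: 0% = growth equal to vehicle treated cultures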
CONDITIONS: S. cerevisiae cln2 rad14 strain, at 50.0 µM, hits give high values
About 79,000 compounds went through this panel and 15% of them were active in at least one assay; those are over-represented in the sample as a whole. Activity calls are given as the source filed them. Rule as the data show it: active = growth inhibition above about 70%; inactive = the rest.

Example entries begin here.
N/C(=N\N=C\c1c[nH]c2cc(C(F)(F)F)ccc2c1=O)NO	11.1% (inactive)
O=C(O)/C(=C/C=C/c1ccccc1)c1csc(-c2nc(/C(=C\C=C\c3ccccc3)C(=O)O)cs2)n1	16.9% (inactive)

Continue with the molecule presented below.
Data request, read-out growth inhibition, for CCC(C(=O)O)c1ccc(-c2ccccc2)cc1 (stereo unspecified)
23.1% (inactive)
